Tested on: bermudagrass (Cynodon dactylon)
Assay: Test G pre/postemergence
Assay type: in vivo
Conditions: Preemergence, 62 g ai/ha, scale 0-100
Quick reference: Plant response rating, Bermudagrass of the listed items.
Form field (numeric): enter value without unit.

Nc1nc(C2CC2)nc(C(=O)[O-])c1Cl.[Na+] [Compound 77] : 0
COC(=O)c1nc(C2CC2)nc(N)c1Cl [Compound 9] : 10
CCOC(=O)c1nc(C2CC2)nc(N)c1Br [Compound 1] : 10

Moving on to the next compound.
Input CCOC(=O)c1nc(C2CC2)nc(N)c1Cl [Compound 4] , output reported Plant response rating, Bermudagrass.
20

----------
Tested on: common ragweed (Ambrosia elatior)
Experiment: Test C pre/postemergence
Format: in vivo
Conditions: Ambrosia artemisiifolia, post-emergence, Postemergence, 125 g ai/ha; scale 0 to 100 (0 no effect, 100 complete control); read-out: Ragweed plant response rating
measure name: pest or weed control at 125 g/ha
Include the unit after the number when you answer.

COC(=O)c1nc(C2CC2)nc(N)c1Cl [Compound 9] : 95%

Report pest or weed control at 125 g/ha, nothing else, for this molecule: CCOC(=O)c1nc(C2CC2)nc(N)c1F [Compound 30]
85%

Let me know recorded pest or weed control at 125 g/ha for CCOC(=O)c1nc(C2CC2)nc(N)c1Br [Compound 1] , thanks.
100%

Read off the recorded pest or weed control at 125 g/ha for CCOC(=O)c1nc(-c2ccc(Cl)cc2)nc(N)c1Cl [Compound 64]
85%

Please list pest or weed control at 125 g/ha recorded for the molecule Nc1nc(C2CC2)nc(C(=O)OCc2ccccc2)c1Cl [Compound 78]
95%

State its pest or weed control at 125 g/ha for this molecule: COC(=O)c1nc(C2CC2)nc(N)c1I [Compound 7]
35%
